Reference for the values: paper PMC12040169

# Assay Notes: in vitro
# Assay Context: human, hela cells, % viability
Let's look at some compounds and their measured viability at 28.5 h, 10 µM.
Your answer is read as %, so omit the unit and give the number.

Some compounds with recorded viability at 28.5 h, 10 µM:
{"columns": ["Compound", "viability at 28.5 h, 10 µM (%)"],
 "data": [
  ["FC(F)(F)c1ccccc1/C=N/n1c(S)nnc1COc1ccccc1 [CBK265260]", 99.7],
  ["O=S(=O)(Nc1ccc2[nH]ccc2c1)c1c(Cl)cc(C(F)(F)F)cc1Cl [CBK156328]", 75.5],
  ["CC(NC(=O)c1cn(C)c(=O)c2ccccc12)c1ccccn1 (stereo not drawn) [CBK281886]", 92.1],
  ["C=CCn1c(=O)c(C(=O)NCCCO)c(O)c2ccccc21 [CBK262481]", 83.9],
  ["CC(=O)Nc1ccc(-c2cncc(Nc3ccc(F)c(Cl)c3)n2)cc1 [CBK065765]", 96.1]
]}

Recorded viability at 28.5 h, 10 µM for CC(C)c1ccc(CNC(=O)c2ccc(-c3ccoc3)nc2)cc1 [CBK156292] , please?
91.4

viability at 28.5 h, 10 µM lookup needed for Clc1ccc(-n2ncc3c(NCc4ccccc4)ncnc32)cc1 [CBK287355] , thanks.
95.1

Entry under review: O=C(N[C@@H](Cn1ccc(=O)[nH]c1=O)C(=O)O)C1CCCCC1 [CBK289651] . Reported viability at 28.5 h, 10 µM?
85.8

---

# Assay Notes: in vitro
# Assay Context: human, hela cells, % viability
Measured viability at 28.5 h, 10 µM of individual entries
Could you kindly put the unit after your number?

Past entries and their recorded results:
{"columns": ["Molecule", "Measured Quantity", "Recorded Measurement"],
 "data": [
  ["CCC(C)(C)c1ccc(S(=O)(=O)N2CCN(CCCOC3CCCCO3)CC2)cc1 (stereo not shown) [CBK063135]", "viability at 28.5 h, 10 µM", "96.9%"],
  ["Cc1ccc2n1CCN(C(=O)c1cc(-c3ccccn3)n[nH]1)C2C(C)C (stereo not shown) [CBK282447]", "viability at 28.5 h, 10 µM", "101%"],
  ["COc1cc(F)ccc1-c1ccc(N)c2ccccc12 [CBK084319]", "viability at 28.5 h, 10 µM", "103%"],
  ["Nc1ccc(-n2c(-c3ccccc3)c3c(c2-c2ccc(Cl)cc2)C(=O)c2ccccc2C3=O)cc1 [CBK262695]", "viability at 28.5 h, 10 µM", "87.3%"],
  ["O=C(N/N=C\\c1cccc(O)c1)C(=O)N/N=C/c1cccc(O)c1 [CBK261962]", "viability at 28.5 h, 10 µM", "87.6%"]
]}

Name the recorded viability at 28.5 h, 10 µM for Cc1ccc(C(=O)NNC(=S)Nc2ccc(S(N)(=O)=O)cc2)cc1[N+](=O)[O-] [CBK266866] .
95.6%

Look up viability at 28.5 h, 10 µM for this molecule: Nc1ccc(-c2cn3ccnc3c(Nc3ccc(Cl)cc3)n2)cc1 [CBK066453]
87%

---

# Assay Notes: in vitro
# Assay Context: human, hela cells, % viability
Each entry below carries its reported viability at 28.5 h, 10 µM.
Give the quantity in %, number only.

Please give the measured viability at 28.5 h, 10 µM for this molecule: CCc1nc2ccc(C(=O)NCCN3CCCC3)cn2c1N(C)C(=O)c1ccncc1
90.5

---

Let's look at some compounds and their measured viability at 28.5 h, 10 µM.
# Assay Notes: in vitro
# Assay Context: human, hela cells, % viability
Enter your answer as a number in %; do not include the unit.

Use these answered entries as a reference point.
{"columns": ["Compound", "Recorded Measurement"],
 "data": [
  ["O=C(c1ccc[nH]1)N1CCc2ccccc21", 72.6],
  ["O=C1COc2ccccc2C/C=C/CC2(CCNCC2)C(=O)NCCN1", 105],
  ["S=C(Nc1ccccc1)N(CCN1CCOCC1)Cc1cccc(Cl)c1", 103],
  ["O=C(CSc1nnc(SCc2cccc3ccccc23)s1)c1ccc2c(c1)OCO2", 100],
  ["Cn1c(=O)oc2cc(Br)ccc21", 108]
]}

Need viability at 28.5 h, 10 µM, item COc1ccc(C(=O)COC(=O)c2cccc(N3C(=O)C4C5C=C(C)C(C5)C4C3=O)c2)cc1 (centres unmarked)
94.1

Give the measured viability at 28.5 h, 10 µM of O=c1[nH]c2n[nH]c(=O)n2c2c(-c3ccccc3)c[nH]c12 .
84.2

Could you share which viability at 28.5 h, 10 µM value was measured for O=c1c(Cc2ccccc2)c(O)c2cccc3c2n1CCC3 ?
93.3

Query (compound): CC(C)NC(=O)NC(=O)C1CCN(CCCc2ccc(Cl)c(Cl)c2)CC1 ; field requested: viability at 28.5 h, 10 µM
89.8

Please report the recorded viability at 28.5 h, 10 µM for CN1CCCN(c2cncc(-c3ccc4c(c3)OCO4)n2)CC1 .
91.7

Entry O=C(C1CC1)N1CCC(n2nc(-c3cccs3)ccc2=O)CC1 : reported viability at 28.5 h, 10 µM = ?
94.7

Look up viability at 28.5 h, 10 µM: CC(C)(C)c1ccc(-c2cc3ncccc3nc2O)cc1
97.1

Looking for the measured viability at 28.5 h, 10 µM of Cc1noc(N)c1C1OC(=O)c2ccccc21 (centres unmarked) , can you help?
104

Please give the measured viability at 28.5 h, 10 µM for this compound: COc1c(C)cc(-c2nc(C)nc(C)c2C)cc1C
96.7

---

# Assay Notes: in vitro
# Assay Context: human, hela cells, % viability
Measured viability at 28.5 h, 10 µM accompanies every entry in the list below.
Report only the number, with the unit % understood.

These solved cases illustrate the format of a correct answer.
{"columns": ["Compound", "viability at 28.5 h, 10 µM [%]"],
 "data": [
  ["CC(C)Nc1cncc(Sc2ccccc2N)n1", 91.7],
  ["CCN1CCC2(C/C=C/CNC(=O)c3ccccc3OCCN(C)C2=O)CC1", 102],
  ["CC(=O)c1ccc(NC(=O)N(C)c2c(C)nc3ccc(C(=O)N4CCN(C(=O)c5ccco5)CC4)cn23)cc1", 92.8],
  ["CN1CCC(N(CCO)CC2(c3ccc(Cl)cc3)CC2)CC1", 96.6],
  ["Cc1ncncc1C(=O)N1CCCCC1CCc1ccccc1 (stereo not drawn)", 109]
]}

Pending compound:
Return reported viability at 28.5 h, 10 µM; argument: COc1cccc(CCC(=O)n2ccn(CCCOc3ccccc3)c2=O)c1
104

---

# Assay Notes: in vitro
# Assay Context: human, hela cells, % viability
Measured Quantity: viability at 28.5 h, 10 µM (%)
Kindly provide the numeric value in % only, without the unit symbol.

# annotated cases, reported viability at 28.5 h, 10 µM shown
{"columns": ["Molecule", "Units Text", "Recorded Measurement"],
 "data": [
  ["Cn1c(C(O)c2ccccc2)n[nH]c1=S (stereo not shown)", "%", 117],
  ["COc1ccc(CN2CCCN(c3ccnc(OCCN4CCOCC4)n3)CC2)cc1", "%", 99.2],
  ["C[C@H](NC(=O)Cc1ccc(-c2ccccc2)cc1)c1nc2ccccc2[nH]1", "%", 98.5]
]}

With those in mind, consider the next molecule.
Consider the molecule shown here: COc1ccc(-c2csc(NC(=O)c3ccccc3-c3ccccc3C(=O)O)n2)cc1 What is its recorded viability at 28.5 h, 10 µM?
88.6

---

Here, each record is paired with measured viability at 28.5 h, 10 µM data.
# Assay Notes: in vitro
# Assay Context: human, hela cells, % viability
Reply numerically in %, unit not repeated.

Observe how each entry below is paired with its result.
{"columns": ["Compound", "Recorded Measurement"],
 "data": [
  ["O=c1[nH]c(=O)c2cc(S(=O)(=O)Nc3ccc(Oc4cccnc4)cc3)ccc2[nH]1 [CBK286386]", 99.2],
  ["O=C(c1ccco1)N1CCC[C@@H]1Cn1c(=O)oc2ccccc21 [CBK284538]", 87.6],
  ["Cc1ccc(CSc2nnc(-c3ccc(NC(=O)/C=C/c4ccccc4)cc3)n2C)cc1 [CBK263850]", 90.4],
  ["COc1ccnc(N2CCN(C(=O)c3cc(C(C)=O)cn3C)CC2)n1 [CBK306272]", 91.2],
  ["CN(C)S(=O)(=O)Nc1ccc(-c2nnn[nH]2)cc1 [CBK156312]", 96.2]
]}

What does the record list as viability at 28.5 h, 10 µM for O=C(CSCc1c(F)cccc1Cl)NCc1ccncc1 [CBK268381] ?
87.1

Given the entry N/C(=N\C(=O)CN1C(=O)C2CCCCC2C1=O)Nc1nc2ccccc2s1 (stereo not shown) [CBK263877] , report its measured viability at 28.5 h, 10 µM.
92.4

# input compound: C[C@@H]1CN(C(=O)c2cscn2)C[C@H](C)O1 [CBK200371] ; wanted: its viability at 28.5 h, 10 µM
90

# get_value(readout='viability at 28.5 h, 10 µM', item= Cc1nc(CN2[C@H]3CCCCC(=O)N[C@@]3(C)C[C@H]2c2cccc(C(F)(F)F)c2)cs1 [CBK285701] )
91.1

What measured viability at 28.5 h, 10 µM goes with Cc1cnc2c(Cl)c(C(=O)NCC3(CN4CCOCC4)CC3)nn2c1 [CBK306918] ?
98.8
